# System under test: 17-beta-hydroxysteroid dehydrogenase type 1 (Homo sapiens, UniProt P14061)
# Sequence (P14061 whole entry): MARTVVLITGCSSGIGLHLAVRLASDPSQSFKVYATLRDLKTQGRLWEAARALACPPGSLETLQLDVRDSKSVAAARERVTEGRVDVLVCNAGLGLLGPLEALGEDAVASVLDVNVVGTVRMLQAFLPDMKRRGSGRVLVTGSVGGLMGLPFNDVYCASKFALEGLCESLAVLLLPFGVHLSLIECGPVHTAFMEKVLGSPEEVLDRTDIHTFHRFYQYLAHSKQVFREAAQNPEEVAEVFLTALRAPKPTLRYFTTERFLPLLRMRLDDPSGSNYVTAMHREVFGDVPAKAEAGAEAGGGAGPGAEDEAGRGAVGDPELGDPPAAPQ
# Test protocol: Inhibition of recombinant 17betaHSD1 using [3H]estrone as substrate after 20 mins by flow scintillation analysis
Endpoint: IC50

• CCCSc1nc(N2CCC[C@@H](CC(=O)O)C2)ccc1C(=O)NC1CCCCC1 [AZD-4017] = > 30 µM

###

# Test protocol: Apparent permeability from basal to apical side of MDCK cells at 10 uM
# Assay type: ADME, cell-based, Canis lupus familiaris
# Details: dog
Endpoint: Papp B→A at 10 µM (×10⁻⁶ cm/s)

* CCCSc1nc(N2CCC[C@@H](CC(=O)O)C2)ccc1C(=O)NC1CCCCC1 | 22

###

# Test protocol: Fraction unbound in rat plasma after 18 to 19 hrs by equilibrium dialysis
# Type: ADME, cell-free
Endpoint: fraction unbound

* CCCSc1nc(N2CCC[C@H](CC(=O)O)C2)ccc1C(=O)NC1CCCCC1 | 0.006
* CCCSc1ncccc1C(=O)NC1CCCCC1 | 0.13
* CCCN(C)c1nc(N2CCC[C@@H](CC(=O)O)C2)ccc1C(=O)NC1CCCCC1 | 0.018
* CCCSc1ncccc1C(=O)N(C)[C@@H]1[C@@H]2CC3C[C@H]1C[C@@](O)(C3)C2 | 0.2
* CCCSc1nc(N2CCC(C(=O)O)CC2)ccc1C(=O)NC1CCCCC1 | 0.03
* CCCNc1nc(N2CCC[C@@H](CC(=O)O)C2)ccc1C(=O)NC1CCCCC1 | 0.029
* CCCSc1ncccc1C(=O)N[C@H]1CC[C@@H](C(=O)O)CC1 | 0.41
* CCCSc1nc(Oc2ccc(CC(=O)O)cc2)ccc1C(=O)NC1CCCCC1 | 0.003
* CCCSc1nc(N2CCCCC2C(=O)O)ccc1C(=O)NC1CCCCC1 (centres undefined) | 0.019
* CCCSc1nc(N2CCCC(C(=O)O)C2)ccc1C(=O)NC1CCCCC1 (centres undefined) | 0.023
* CCCSc1nc(N2CCC[C@@H](CC(=O)O)C2)ccc1C(=O)NC1CCCCC1 [AZD-4017] | 0.017
* CCCSc1ncccc1C(=O)N(C)[C@H]1[C@@H]2CC3C[C@H]1C[C@@](O)(C3)C2 | 0.41
* CCCSc1ncccc1C(=O)NC1CCC(F)(F)CC1 | 0.29
* CCCOc1nc(N2CCC[C@@H](CC(=O)O)C2)ccc1C(=O)NC1CCCCC1 | 0.006
* CCCCc1nc(N2CCC[C@@H](CC(=O)O)C2)ccc1C(=O)NC1CCCCC1 | 0.06
* O=S(=O)(Cc1c(F)cccc1F)N1CCN(c2ncccc2C(F)(F)F)CC1 | 0.005
* CCCSc1nc(N[C@H]2CC[C@H](C(=O)O)CC2)ccc1C(=O)NC1CCCCC1 | 0.029
* CCCSc1ncccc1C(=O)N(C)C1CCCCC1 | 0.1
* CCCSc1ncccc1C(=O)N(C)C1CCOCC1 | 0.49
* CCCSc1ncccc1C(=O)N1CCCC1c1ccncc1 (centres undefined) | 0.13
* CCCSc1nc(Oc2cccc(CCC(=O)O)c2)ccc1C(=O)NC1CCCCC1 | 0.006
* CCCSc1nc(NC[C@H]2CC[C@H](C(=O)O)CC2)ccc1C(=O)NC1CCCCC1 | 0.015
* CCCSc1nc(N2CCC(CC(=O)O)CC2)ccc1C(=O)NC1CCCCC1 | 0.032
